experiment: Toxicity in Artemia salina; type: organism-based; conditions: in vivo, read-out: LD50 (the source's name)
reported.property: LC50 (µg/mL)
Numbers only here, please. The scale is µg/mL.

Report LC50 for "COc1oc(C/C=C(\C)C/C=C/C(C)=C/[C@@H](C)O)c(C)c(=O)c1C" please.
1

====

experiment: Ichthyotoxicity in gold fish after 1 hr; assay type: organism-based; settings: carassius auratus, in vivo; read-out: LD50
reported.property: LC50 at 1 h (µg/mL)
Numbers only here, please. The scale is µg/mL.

Report LC50 at 1 h for COc1oc(C/C=C(\C)C/C=C/C(C)=C/[C@@H](C)O)c(C)c(=O)c1C [KALKIPYRONE] please.
2
